# test: inhibitors of DENV2 cytopathic effect, primary screen, cell-based, plate reader, single concentration (AID 651640);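 further: 0% = median of neutral control wells and 100% = median of positive control wells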
# measurementContext: DENV2-infected cells, cytopathic effect rescue, at 9.99 µM, active compounds read high
Among all 350,000 compounds or so, about 6,000 (1.7%) were called active. About 5% were inconclusive and are not listed. The list comes from a sample in which actives are over-represented; it also holds close analogues and randomly drawn compounds.
measurementLabel: CPE inhibition (%)
One number for each entry, in %.

Here are 3 molecules together with their reported answers.
molecule: Cc1cccn2c(CN(C)C3CCCc4ccccc43)c(C(=O)N3CCOCC3)nc12 (stereo not drawn)
CPE inhibition, %: -1.26
--
molecule: COc1ccc(S(=O)(=O)N(C)C[C@@H]2Oc3ccc(NC(=O)Cc4ccccc4)cc3CC(=O)N([C@@H](C)CO)C[C@H]2C)cc1
CPE inhibition, %: -3.88
--
molecule: C[C@@H]1CN([C@H](C)CO)C(=O)c2cccc(NC(=O)CCCCCC(=O)Nc3ccccc3N)c2O[C@H]1CN(C)Cc1ccc(Oc2ccccc2)cc1
CPE inhibition, %: -13.3

Need CPE inhibition for each of these molecules.
1. CCCNC(=O)C[C@H]1C[C@@H]2c3cc(NC(=O)COC)ccc3O[C@@H]2[C@@H](CO)O1
2. C/C=C(\C)C(=O)NCCN1C2=NC[C@H](Cc3ccc(O)cc3)N2C[C@@H]1Cc1ccc(OC)cc1
3. Cc1ccccc1C1=NC(C(F)(F)F)(C(F)(F)F)c2c(n(-c3ccc(F)cc3)c(=O)[nH]c2=O)N1

[out]
1: -2.37; 2: 77.3; 3: 22.3

Respectfully, I request CPE inhibition for each entry included below.
1. COc1cccc(S(=O)(=O)Nc2ccc3c(c2)C(=O)N(C)C[C@@H](OC)[C@@H](C)CN[C@@H](C)CO3)c1
2. CCOC(=O)C1CCN(Cc2c(C(=O)N3CCOCC3)nc3c(C)cccn23)CC1

[out]
2.43
115

---

# test: inhibitors of DENV2 cytopathic effect, primary screen, cell-based, plate reader, single concentration (AID 651640);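 further: 0% = median of neutral control wells and 100% = median of positive control wells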
# measurementContext: DENV2-infected cells, cytopathic effect rescue, at 9.99 µM
The whole screen tested about 350,000 compounds, of which about 6,000 (1.7%) were called active. About 5% were inconclusive and are not listed. Cut-off read from the data, not from the text of the source: active = CPE inhibition above about 20% (passing the limit was not always enough); inconclusive = no clear call, values can overlap the other calls; tested in BHK-21 cells. Only a selection was taken, and actives are over-represented in it overall.
Select the matching outcome among active, inactive

Previously resolved entries follow.
structureNotation: O=C(C1CCCC1)N1CC2(C1)[C@H](c1ccccc1)[C@H](CO)N2CCC(F)(F)F
labelClass: inactive
//
structureNotation: C[C@@H]1CN([C@H](C)CO)S(=O)(=O)c2ccc(-c3ccncc3)cc2O[C@@H]1CN(C)C(=O)CN(C)C
labelClass: inactive

[in] Could you please tell me the result logged for O=C(c1cnccn1)N1CC2(C1)[C@H](c1ccccc1)[C@H](CO)N2C(=O)c1ccccc1 in this assay?
[out] inactive

[in] Proceed to COc1ccc(CN(C)C[C@H]2OCCCC[C@H](C)Oc3ccc(NC(=O)Nc4ccc5c(c4)OCO5)cc3C(=O)N([C@H](C)CO)C[C@@H]2C)cc1
[out] inactive

[in] Repeat with O=C(C1CCCC1)N1[C@H](CO)[C@@H](c2ccccc2)C12CN(CCC(F)(F)F)C2
[out] inactive

[in] Subsequent entry: Cc1noc(C)c1NC(=O)Nc1cccc2c1O[C@H](CN(C)S(C)(=O)=O)[C@H](C)CN([C@H](C)CO)C2=O
[out] inactive

[in] Another: CCC(=O)N1[C@@H](CO)[C@@H](c2ccccc2)C12CN(C(=O)c1cnccn1)C2
[out] active

[in] And for C[C@@H](NC(=O)C[C@@H]1C[C@@H]2c3cc(NC(=O)c4cccnc4)ccc3O[C@@H]2[C@H](CO)O1)c1ccccc1 ?
[out] inactive
